# experimental_target: MMP-13 catalytic domain (MMP-13CD) (Homo sapiens, UniProt P45452)
# Construct: use the catalytic domain of the MMP-13 enzyme, namely matrix metalloproteinase-13 catalytic domain (“MMP-13CD”), rather than the corresponding full-length enzyme
# assay_notes: Inhibition of MMP-13 catalytic domain (thiopeptolide substrate hydrolysis)
# Type: biochemical
# assay_context: Biological Table 1; read-out: MMP-13CD IC50
pIC50: −log10 of the molar value.
readout_kind: pIC50

[[record]]
compound = "O=C(NCc1ccncc1)c1ccc2ccn(CCOc3ccccc3)c(=O)c2c1 [Example 41]"
experimental_target = "MMP-13 catalytic domain (MMP-13CD) (Homo sapiens, UniProt P45452)"
recorded_value = 4.59

[[record]]
compound = "COc1cc(CNC(=O)c2ccc3ccn(Cc4ccc(C(=O)O)cc4)c(=O)c3c2)ccn1 [Example 27]"
experimental_target = "MMP-13 catalytic domain (MMP-13CD) (Homo sapiens, UniProt P45452)"
recorded_value = 7.44

[[record]]
compound = "CS(=O)(=O)c1ccc(Cn2ccc3ccc(C(=O)NCc4cncnc4)cc3c2=O)cc1 [Example 54]"
experimental_target = "MMP-13 catalytic domain (MMP-13CD) (Homo sapiens, UniProt P45452)"
recorded_value = 4.46

[[record]]
compound = "O=C(NCc1ccco1)c1ccc2ccn(Cc3ccc(-c4nn[nH]n4)cc3)c(=O)c2c1 [Example 62]"
experimental_target = "MMP-13 catalytic domain (MMP-13CD) (Homo sapiens, UniProt P45452)"
recorded_value = 4.92

[[record]]
compound = "COc1ccc(CNC(=O)c2ccc3ccn(Cc4ccc(-c5nn[nH]n5)cc4)c(=O)c3c2)cc1 [Example 58]"
experimental_target = "MMP-13 catalytic domain (MMP-13CD) (Homo sapiens, UniProt P45452)"
recorded_value = 7.77

[[record]]
compound = "O=C(O)c1ccc(Cn2ccc3ccc(C(=O)NCc4cccnc4)cc3c2=O)cc1 [Example 30]"
experimental_target = "MMP-13 catalytic domain (MMP-13CD) (Homo sapiens, UniProt P45452)"
recorded_value = 6.40

